- system: T1, recombinant human EGFR extracellular domain with 6xHis (human, UniProt P00533 25-645)
- T1 construct: In-house produced; also called 6xHis EGFR ECD; soluble human EGFR ECD; not shown: 6xHis tag
- protocol details: SPR competition, competitor Vectibix
observable: % inhibition (%)
Express the result in % but write the number alone.

{"columns": ["binder", "% inhibition, %"],
 "data": [
  ["antibody 1344 (antibody, human IgG1, kappa, V domains shown, Chimeric IgG1 kappa) VH: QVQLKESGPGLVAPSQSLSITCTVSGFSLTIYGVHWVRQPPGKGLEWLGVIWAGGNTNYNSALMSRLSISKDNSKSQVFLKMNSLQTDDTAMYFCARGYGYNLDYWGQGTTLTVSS VL: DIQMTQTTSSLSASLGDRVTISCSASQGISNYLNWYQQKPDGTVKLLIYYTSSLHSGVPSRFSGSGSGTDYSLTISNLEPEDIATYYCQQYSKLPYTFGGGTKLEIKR", 8],
  ["antibody 1042 (antibody, human IgG1, kappa, V domains shown, Chimeric IgG1 kappa; RA- left out of the VH entry) VH: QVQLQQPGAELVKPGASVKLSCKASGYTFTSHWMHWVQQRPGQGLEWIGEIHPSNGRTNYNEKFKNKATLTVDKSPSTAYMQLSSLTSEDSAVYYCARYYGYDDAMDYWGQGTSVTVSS VL: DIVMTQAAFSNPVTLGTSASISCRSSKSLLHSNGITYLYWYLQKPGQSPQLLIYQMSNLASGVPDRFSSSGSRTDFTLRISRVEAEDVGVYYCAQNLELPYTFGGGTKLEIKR", 103],
  ["antibody 1260 (antibody, human IgG1, kappa, V domains shown, Chimeric IgG1 kappa) VH: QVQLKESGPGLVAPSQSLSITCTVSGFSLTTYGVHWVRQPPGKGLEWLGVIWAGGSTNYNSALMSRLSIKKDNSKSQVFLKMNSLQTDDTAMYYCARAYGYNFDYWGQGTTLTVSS VL: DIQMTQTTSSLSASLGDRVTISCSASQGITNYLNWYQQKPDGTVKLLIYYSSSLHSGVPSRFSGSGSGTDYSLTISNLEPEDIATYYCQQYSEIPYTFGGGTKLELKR", 31]
]}

Next binder, please.
QUERY: Tell us which % inhibition value is on record for antibody 1257 (antibody, human IgG1, kappa, V domains shown, Chimeric IgG1 kappa) VH: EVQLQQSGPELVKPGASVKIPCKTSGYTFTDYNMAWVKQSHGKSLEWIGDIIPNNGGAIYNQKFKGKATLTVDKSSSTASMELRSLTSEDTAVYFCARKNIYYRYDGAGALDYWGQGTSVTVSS VL: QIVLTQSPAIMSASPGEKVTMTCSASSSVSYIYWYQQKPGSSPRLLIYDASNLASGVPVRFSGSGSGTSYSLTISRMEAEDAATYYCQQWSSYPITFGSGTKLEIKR
RESULT: 15
